Reported EC90 by item:
- System: SARS-CoV-2 (USA-WA1/2020)
- ASSAY_DETAILS: microbe, parasite or virus in culture
- Format: cell-based
- CONDITION_DESCRIPTION: Severe acute respiratory syndrome coronavirus 2, Vero C1008, 32 h; read-out: EC90
Form entry: value (µM) — number only.

Please tell me the measured EC90 for COC(=O)c1cccc(CNCc2cccc(-c3csc(-c4nc5ccccc5[nH]4)c3)c2)c1 [Compound 1] ; system: SARS-CoV-2 (USA-WA1/2020).
9.5

Please tell me the measured EC90 for COC(=O)c1cccc(CNC(=O)c2cccc(-c3csc(-c4nc5ccccc5[nH]4)c3)c2)c1 [Compound 3] ; system: SARS-CoV-2 (USA-WA1/2020).
12.6

Please tell me the measured EC90 for CCOc1cc(CN2CCC(C(=O)Nc3cccc(-c4cccc(C(F)(F)F)c4)c3)CC2)ccc1O [Compound 5] ; system: SARS-CoV-2 (USA-WA1/2020).
7.47

Please tell me the measured EC90 for CCOc1cc(CN2CCC(C(=O)Nc3cccc(-c4cccc(Cl)c4)c3)CC2)ccc1O [Compound 9] ; system: SARS-CoV-2 (USA-WA1/2020).
8.9

Please tell me the measured EC90 for CNC(=O)c1cccc(CNCc2cccc(-c3csc(-c4nc5ccccc5[nH]4)c3)c2)c1 [Compound 2] ; system: SARS-CoV-2 (USA-WA1/2020).
13.1

Please tell me the measured EC90 for COc1ccc(CN2CCC(C(=O)Nc3cccc(-c4cccc(Cl)c4)c3)CC2)cc1O [Compound 8] ; system: SARS-CoV-2 (USA-WA1/2020).
11.7

* * *

- Test system: SARS-CoV-2 (USA-WA1/2020)
- ASSAY_DETAILS: microbe, parasite or virus in culture
- Format: cell-based
- CONDITION_DESCRIPTION: Severe acute respiratory syndrome coronavirus 2, Vero C1008, 32 h; read-out: EC50
OBSERVATION_TYPE: pEC50
// pEC50 is dimensionless: -log10 of concentration (M)

>  <STRUCTURE>
CNC(=O)c1cccc(CNCc2cccc(-c3csc(-c4nc5ccccc5[nH]4)c3)c2)c1

>  <VAL>
5.13

$$$$
>  <STRUCTURE>
COC(=O)c1cccc(CNCc2cccc(-c3csc(-c4nc5ccccc5[nH]4)c3)c2)c1

>  <VAL>
5.25

$$$$
>  <STRUCTURE>
CCOc1cc(CN2CCC(C(=O)Nc3cccc(-c4cccc(C(F)(F)F)c4)c3)CC2)ccc1O

>  <VAL>
5.31

$$$$

Please tell me the measured pEC50 for CCOc1cc(CN2CCC(C(=O)Nc3cccc(-c4ccc(Cl)cc4)c3)CC2)ccc1O ; system: SARS-CoV-2 (USA-WA1/2020).
5.21

Please tell me the measured pEC50 for COc1ccc(CN2CCC(C(=O)Nc3cccc(-c4cccc(Cl)c4)c3)CC2)cc1O ; system: SARS-CoV-2 (USA-WA1/2020).
5.16

Please tell me the measured pEC50 for COC(=O)c1cccc(CNC(=O)c2cccc(-c3csc(-c4nc5ccccc5[nH]4)c3)c2)c1 ; system: SARS-CoV-2 (USA-WA1/2020).
5.12

* * *

Reported EC90 by item:
- Test system: SARS-CoV-2 (USA-WA1/2020)
- ASSAY_DETAILS: microbe, parasite or virus in culture
- Assay type: cell-based
- CONDITION_DESCRIPTION: Severe acute respiratory syndrome coronavirus 2, Vero C1008, 32 h; read-out: EC90
Form entry: value (µM) — number only.

Solved entries (count: 3):
>  <STRUCTURE>
CCOc1cc(CN2CCC(C(=O)Nc3cccc(-c4cccc(OC)c4)c3)CC2)ccc1O

>  <SCALE_UNIT>
µM

>  <VAL>
11.5

$$$$
>  <STRUCTURE>
CCOc1cc(CN2CCC(C(=O)Nc3cccc(-c4ccc(Cl)cc4)c3)CC2)ccc1O

>  <SCALE_UNIT>
µM

>  <VAL>
9.1

$$$$
>  <STRUCTURE>
O=C(Nc1cccc(-c2cccc(Cl)c2)c1)C1CCN(Cc2ccc(O)cc2)CC1

>  <SCALE_UNIT>
µM

>  <VAL>
11

$$$$

Please list EC90 recorded for the molecule CCOc1cc(CN2CCC(C(=O)Nc3cccc(-c4cccc(F)c4)c3)CC2)ccc1O
10.1

* * *

- ASSAY_DETAILS: in vitro
- CONDITION_DESCRIPTION: African green monkey
OBSERVATION_TYPE: CC50

>  <MOLECULE>
CCOc1cc(CN2CCC(C(=O)Nc3cccc(-c4cccc(OC)c4)c3)CC2)ccc1O

>  <CC50>
26.3 µM

$$$$
>  <MOLECULE>
O=C(Nc1cccc(-c2cccc(Cl)c2)c1)C1CCN(Cc2ccc(O)cc2)CC1

>  <CC50>
21 µM

$$$$

Please list CC50 recorded for the molecule CCOc1cc(CN2CCC(C(=O)Nc3cccc(-c4cccc(Cl)c4)c3)CC2)ccc1O
16 µM

Please list CC50 recorded for the molecule COc1cc(C(=O)OCCCN2CCCN(CCCOC(=O)c3cc(OC)c(OC)c(OC)c3)CC2)cc(OC)c1OC [Dilazep, reference compound]
> 30 µM

Please list CC50 recorded for the molecule COc1ccc(CN2CCC(C(=O)Nc3cccc(-c4cccc(Cl)c4)c3)CC2)cc1O
17 µM

* * *

Reported pEC50 by item:
- Tested on: SARS-CoV-2 (USA-WA1/2020)
- ASSAY_DETAILS: microbe, parasite or virus in culture
- Assay type: cell-based
- CONDITION_DESCRIPTION: Severe acute respiratory syndrome coronavirus 2, Vero C1008, 32 h; read-out: EC50
// pEC50 is dimensionless: -log10 of concentration (M)

Solved entries (count: 3):
>  <STRUCTURE>
O=C(Nc1cccc(-c2cccc(Cl)c2)c1)C1CCN(Cc2ccc(O)cc2)CC1

>  <TARGET_OF_ASSAY>
SARS-CoV-2 (USA-WA1/2020)

>  <pEC50>
5.19

$$$$
>  <STRUCTURE>
CCOc1cc(CN2CCC(C(=O)Nc3cccc(-c4cccc(OC)c4)c3)CC2)ccc1O

>  <TARGET_OF_ASSAY>
SARS-CoV-2 (USA-WA1/2020)

>  <pEC50>
5.15

$$$$
>  <STRUCTURE>
CCOc1cc(CN2CCC(C(=O)Nc3cccc(-c4cccc(F)c4)c3)CC2)ccc1O

>  <TARGET_OF_ASSAY>
SARS-CoV-2 (USA-WA1/2020)

>  <pEC50>
5.21

$$$$

Please turn your attention to the following entry.
Please tell me the measured pEC50 for CCOc1cc(CN2CCC(C(=O)Nc3cccc(-c4cccc(Cl)c4)c3)CC2)ccc1O ; system: SARS-CoV-2 (USA-WA1/2020).
5.24

* * *

- ASSAY_DETAILS: in vitro
- CONDITION_DESCRIPTION: African green monkey
Reported CC50 by item:
Form entry: value (µM) — number only.

Solved entries (count: 2):
>  <COMPOUND>
CCOc1cc(CN2CCC(C(=O)Nc3cccc(-c4cccc(C(F)(F)F)c4)c3)CC2)ccc1O

>  <VAL>
15.6

$$$$
>  <COMPOUND>
O=C(NC1CCN(CCCCC2(C(=O)NCC(F)(F)F)c3ccccc3-c3ccccc32)CC1)c1ccccc1-c1ccc(C(F)(F)F)cc1 [reference compound]

>  <VAL>
9.56

$$$$

Please list CC50 recorded for the compound CCOc1cc(CN2CCC(C(=O)Nc3cccc(-c4ccc(Cl)cc4)c3)CC2)ccc1O
16

Sourced from patent US11865111B2
